# protocol_notes: Solubility in water
# Format: physicochemical
quantity_measured: solubility

1) NC(=O)CN1C[C@H](O)CC1=O
≥ 100 mg/mL
